target: human mPGES1 (Homo sapiens (Human))
Sequence (O14684 whole entry): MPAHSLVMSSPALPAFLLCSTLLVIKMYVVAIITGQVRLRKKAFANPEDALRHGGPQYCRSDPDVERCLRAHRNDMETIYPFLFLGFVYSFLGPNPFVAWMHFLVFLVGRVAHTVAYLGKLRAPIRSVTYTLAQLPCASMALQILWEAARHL
# note: boundary value 4 nM maps to No; IC50 below it maps to Yes

Example entries begin here.
1. CCn1c(-c2cccc(Cl)c2)cc2cc(NC(=O)c3cc(CNC(=O)C(C)(C)F)cnc3C(F)F)ccc21 [Example 20] :: Yes
2. CC(C)(F)C(=O)NCc1cnc(C(F)F)c(C(=O)Nc2ccc3oc(-c4ccc(C(F)(F)F)cc4)nc3c2)c1 [Example 23] :: No
3. CC(C)(C)C(=O)NCc1ccc(Cl)c(C(=O)Nc2ccc3nn(-c4ccc(Cl)cc4)cc3c2)c1 [Example 16] :: No

q: Item Cn1c(-c2ccc(Cl)cc2)cc2cc(NC(=O)c3cc(CNC(=O)C(C)(C)F)cnc3C(F)F)ccc21 [Example 18] : IC50 beneath 4 nM, strictly?
a: No

q: Item CC(C)(F)C(=O)NCc1cnc(C(F)F)c(C(=O)Nc2ccc3c(c2)cc(-c2ccc(Cl)cc2)n3[C@H]2CCOC2)c1 [Example 46] : IC50 beneath 4 nM, strictly?
a: Yes

q: Item CC(C)(F)C(=O)NCc1cnc(C(F)F)c(C(=O)Nc2ccc3c(c2)cc(-c2ccc(Cl)cc2)n3[C@@H]2CCOC2)c1 [Example 47] : IC50 beneath 4 nM, strictly?
a: No
